So I've got a bunch of molecules here, and I need their Ki values.
- tested-system: recombinant human NK3 receptor (Homo sapiens, UniProt P29371)
- Construct: expressed in transfected cells; host or cells: HEK293 cells (transient expression), membranes
- protocol-details: [3H]SR142801 competition binding assay
- measurement-conditions: membranes from HEK293 cells transiently expressing recombinant human NK3 receptor; [3H]SR142801 radioligand; 75 min at RT; Ki by Cheng-Prussoff; read-out: Data Ki (hNK-3 receptor affinity)
Numbers only, in nM.

Working through the 6 molecules below one at a time, give Ki for each.
1. C[C@H](NC(=O)C1(c2ccccc2)CCN(C(=O)N2CCN(C3CCCCC3)CC2)CC1)c1ccccc1
2. C[C@H](NC(=O)C1(c2ccccc2)CCN(C(=O)c2ccc(N3CCS(=O)(=O)CC3)cc2)CC1)C1CCCCC1
3. CC(C)C(NC(=O)C1(c2ccc(F)cc2)CCN(C(=O)C2CCN(c3ccc(C#N)cn3)CC2)CC1)c1ccc(F)cc1 (stereo not shown)
4. C[C@H](NC(=O)C1(c2ccc(F)cc2)CCN(C(=O)c2ccc(-c3ccc(F)cc3)cc2)CC1)c1cccc(F)c1
5. CC[C@H](NC(=O)C1(c2ccccc2)CCN(C(=O)c2ccc(-c3nc(C)no3)cc2)CC1)c1ccccc1
6. Cc1noc(-c2ccc(C(=O)N3CCC(C(=O)N[C@@H](C)c4cccc(F)c4)(c4ccc(F)cc4)CC3)cc2)n1

1. 22.1
2. 4.1
3. 38
4. 12
5. 1.1
6. 4.6

Look up Ki: C[C@H](NC(=O)C1(c2ccccc2)CCN(C(=O)c2ccc(N3CCS(=O)(=O)CC3)cc2)CC1)c1ccc(F)cc1
11.8

###

- tested-system: recombinant human NK3 receptor (Homo sapiens, UniProt P29371)
- Sequence (P29371 1-465): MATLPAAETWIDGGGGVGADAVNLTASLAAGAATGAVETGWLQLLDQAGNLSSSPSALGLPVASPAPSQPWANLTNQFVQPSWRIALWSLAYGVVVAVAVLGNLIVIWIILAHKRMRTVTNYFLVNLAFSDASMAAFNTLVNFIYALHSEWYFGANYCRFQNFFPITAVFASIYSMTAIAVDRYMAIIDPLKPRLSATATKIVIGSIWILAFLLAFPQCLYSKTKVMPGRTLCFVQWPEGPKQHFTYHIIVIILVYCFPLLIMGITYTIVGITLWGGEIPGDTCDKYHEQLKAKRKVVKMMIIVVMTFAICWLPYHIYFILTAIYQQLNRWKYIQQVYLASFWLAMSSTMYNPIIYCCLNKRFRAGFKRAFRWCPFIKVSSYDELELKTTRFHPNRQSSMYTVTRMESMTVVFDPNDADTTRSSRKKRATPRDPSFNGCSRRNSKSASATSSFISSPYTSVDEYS
- protocol-details: [3H]SR142801 competition binding assay
- measurement-conditions: membranes from HEK293 cells transiently expressing recombinant human NK3 receptor; [3H]SR142801 radioligand; 75 min at RT; Ki by Cheng-Prussoff; read-out: Data Ki (hNK-3 receptor affinity)
assay-metric: Ki (nM)
One number for each entry, in nM.

Reference set (6 entries):
[
  {
    "compound": "C[C@H](NC(=O)C1(c2ccccc2)CCN(C(=O)N2CCN(c3ccc(F)cc3)CC2)CC1)c1ccccc1",
    "tested-system": "recombinant human NK3 receptor (Homo sapiens, UniProt P29371)",
    "unit-annotation": "nM",
    "Ki": 8.8
  },
  {
    "compound": "CC(C)C(NC(=O)C1(c2ccc(F)cc2)CCN(C(=O)c2ccc(-c3ccc(F)cc3)cc2)CC1)c1ccc(F)cc1 (stereo not shown)",
    "tested-system": "recombinant human NK3 receptor (Homo sapiens, UniProt P29371)",
    "unit-annotation": "nM",
    "Ki": 10.9
  },
  {
    "compound": "Cc1noc(-c2ccc(C(=O)N3CCC(C(=O)N[C@@H](C)c4ccc(F)cc4)(c4ccc(F)cn4)CC3)cc2)n1",
    "tested-system": "recombinant human NK3 receptor (Homo sapiens, UniProt P29371)",
    "unit-annotation": "nM",
    "Ki": 93.7
  },
  {
    "compound": "C[C@H](NC(=O)C1(c2ccccc2)CCN(C(=O)c2ccc(-c3ccc(C(F)(F)F)cc3)cc2)CC1)c1ccccc1",
    "tested-system": "recombinant human NK3 receptor (Homo sapiens, UniProt P29371)",
    "unit-annotation": "nM",
    "Ki": 23.9
  },
  {
    "compound": "O=C(c1ccc(-c2ccc(F)cc2)cc1)N1CCC(C(=O)N[C@@H](c2cccc(F)c2)C2CC2)(c2ccc(F)cc2)CC1",
    "tested-system": "recombinant human NK3 receptor (Homo sapiens, UniProt P29371)",
    "unit-annotation": "nM",
    "Ki": 35
  },
  {
    "compound": "O=C(c1ccc(-c2ccc(F)cc2)cc1)N1CCC(C(=O)NNc2ccc(F)c(F)c2)(c2ccc(F)cc2)CC1",
    "tested-system": "recombinant human NK3 receptor (Homo sapiens, UniProt P29371)",
    "unit-annotation": "nM",
    "Ki": 17
  }
]

In the following, a different compound is considered.
What value of Ki has been reported for the following compound? C[C@H](NC(=O)C1(c2ccccc2)CCN(C(=O)c2ccc(N3CCOCC3)cc2)CC1)c1ccccc1
84.4

Data credit: patent US8324250B2
